# measured on: hCB2R (Homo sapiens, UniProt P34972)
# Sequence (P34972 whole entry): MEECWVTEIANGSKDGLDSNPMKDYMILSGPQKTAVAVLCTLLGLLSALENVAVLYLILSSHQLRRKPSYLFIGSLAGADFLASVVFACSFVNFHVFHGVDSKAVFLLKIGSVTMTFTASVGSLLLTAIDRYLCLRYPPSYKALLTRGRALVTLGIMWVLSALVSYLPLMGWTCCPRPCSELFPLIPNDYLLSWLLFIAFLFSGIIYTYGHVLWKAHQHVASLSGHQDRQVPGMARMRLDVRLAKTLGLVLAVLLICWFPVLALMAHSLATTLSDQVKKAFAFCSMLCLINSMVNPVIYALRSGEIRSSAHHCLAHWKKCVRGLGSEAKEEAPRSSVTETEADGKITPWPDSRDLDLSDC
# Parameters: expressed in transfected cells; host or cells: Flp-In-293 (Invitrogen #R750-07), pcDNA5/FRT
# test context: hCB2R, reference CP55940
Parameter threshold = -2. Response is met when ΔLogR pERK meets or exceeds it, else not met.

>  <compound>
CN1CCCC[C@@H]1Cn1cc(C(=O)c2cc([N+](=O)[O-])ccc2I)c2ccccc21 [(R)-AM1241]

>  <cat>
met

$$$$
>  <compound>
CCCCCCC(C)(C)c1cc(OC)c(C2=C[C@H]3CC[C@]2(CO)C3(C)C)c(OC)c1 [HU910]

>  <cat>
not met

$$$$
>  <compound>
CN1CCCC[C@H]1Cn1cc(C(=O)c2cc([N+](=O)[O-])ccc2I)c2ccccc21 [(S)-AM1241]

>  <cat>
met

$$$$
>  <compound>
CN1CCCCC1Cn1cc(C(=O)c2cc([N+](=O)[O-])ccc2I)c2ccccc21 (racemic) [(rac)-AM1241]

>  <cat>
met

$$$$
>  <compound>
CCCCCCC(C)(C)c1cc(OC)c([C@@H]2C=C(CO)[C@@H]3C[C@H]2C3(C)C)c(OC)c1 [HU308]

>  <cat>
met

$$$$
>  <compound>
CCCCC/C=C\C/C=C\C/C=C\C/C=C\CCCC(=O)OC(CO)CO [2-AG, 2-arachidonoyl glycerol]

>  <cat>
not met

$$$$
>  <compound>
CCCCC/C=C\C/C=C\C/C=C\C/C=C\CCCC(=O)NCCO [Anandamide, N-arachidonoylethanolamine]

>  <cat>
not met

$$$$

---

# measured on: hCB1R (Homo sapiens, UniProt P21554)
# Construct: host or cells: CHO
# Sequence (P21554 whole entry): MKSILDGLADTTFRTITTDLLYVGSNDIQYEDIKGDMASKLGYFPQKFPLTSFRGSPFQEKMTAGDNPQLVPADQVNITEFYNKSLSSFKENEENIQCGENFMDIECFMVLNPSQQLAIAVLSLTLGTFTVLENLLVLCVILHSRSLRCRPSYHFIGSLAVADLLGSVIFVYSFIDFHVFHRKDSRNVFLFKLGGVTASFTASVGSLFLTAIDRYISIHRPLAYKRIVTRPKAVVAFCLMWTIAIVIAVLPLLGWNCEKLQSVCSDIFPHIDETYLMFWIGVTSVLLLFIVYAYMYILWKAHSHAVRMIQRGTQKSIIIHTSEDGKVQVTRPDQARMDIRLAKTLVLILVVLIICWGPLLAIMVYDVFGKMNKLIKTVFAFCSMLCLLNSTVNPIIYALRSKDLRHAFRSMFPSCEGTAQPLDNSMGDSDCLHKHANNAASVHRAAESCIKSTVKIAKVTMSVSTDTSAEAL
# assay text: cell-based
# Format: cell-based
pEC50: −log10 of the molar value.

>  <compound>
CCCCCCC(C)(C)c1cc(OC)c([C@@H]2C=C(CO)[C@@H]3C[C@H]2C3(C)C)c(OC)c1 [HU308]

>  <pEC50>
< 5.00

$$$$

---

# measured on: kappa (KOP) (Rattus norvegicus)
# Construct: CEREP (contract assay)
# Sequence (P34975 whole entry): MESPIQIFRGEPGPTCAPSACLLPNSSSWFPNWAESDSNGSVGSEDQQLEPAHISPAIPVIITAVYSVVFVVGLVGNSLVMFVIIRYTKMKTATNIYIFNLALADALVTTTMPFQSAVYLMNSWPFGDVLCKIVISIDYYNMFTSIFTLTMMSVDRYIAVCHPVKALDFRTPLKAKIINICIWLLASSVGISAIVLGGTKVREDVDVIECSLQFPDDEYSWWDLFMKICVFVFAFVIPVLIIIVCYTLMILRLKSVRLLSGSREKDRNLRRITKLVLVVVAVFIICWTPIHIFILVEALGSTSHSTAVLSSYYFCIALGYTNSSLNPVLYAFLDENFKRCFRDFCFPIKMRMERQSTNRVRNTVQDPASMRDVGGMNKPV
# assay text: CEREP panel
# Type: binding
# test context: 10 µM
parameter: % inhibition kappa (KOP) (%)

>  <compound>
Cc1c(C(=O)c2cccc3ccccc23)c2cccc3c2n1[C@H](CN1CCOCC1)CO3

>  <measured on>
kappa (KOP) (Rattus norvegicus)

>  <recorded measurement>
79

$$$$
>  <compound>
CCCn1c(C)c(C(=O)c2cccc3ccccc23)c2ccccc21

>  <measured on>
kappa (KOP) (Rattus norvegicus)

>  <recorded measurement>
53

$$$$
>  <compound>
Cc1ccc2c(c1)Cc1c(C(=O)NN3CCCCC3)nn(-c3ccc(Cl)cc3Cl)c1-2

>  <measured on>
kappa (KOP) (Rattus norvegicus)

>  <recorded measurement>
99

$$$$
>  <compound>
COc1ccc(C(=O)c2c(C)n(CCN3CCOCC3)c3cc(I)ccc23)cc1

>  <measured on>
kappa (KOP) (Rattus norvegicus)

>  <recorded measurement>
57

$$$$
>  <compound>
Cc1c(C(=O)NN2CCCCC2)nn(-c2ccc(Cl)cc2Cl)c1-c1ccc(I)cc1

>  <measured on>
kappa (KOP) (Rattus norvegicus)

>  <recorded measurement>
94

$$$$
>  <compound>
CN1CCCC[C@H]1Cn1cc(C(=O)c2cc([N+](=O)[O-])ccc2I)c2ccccc21 [(S)-AM1241]

>  <measured on>
kappa (KOP) (Rattus norvegicus)

>  <recorded measurement>
87

$$$$

Source listed as paper PMC5216056.
